All values here come from patent US20050239784A1.

TGT: CDC25B (Homo sapiens)
Sequence (P30305 whole entry, species assumed): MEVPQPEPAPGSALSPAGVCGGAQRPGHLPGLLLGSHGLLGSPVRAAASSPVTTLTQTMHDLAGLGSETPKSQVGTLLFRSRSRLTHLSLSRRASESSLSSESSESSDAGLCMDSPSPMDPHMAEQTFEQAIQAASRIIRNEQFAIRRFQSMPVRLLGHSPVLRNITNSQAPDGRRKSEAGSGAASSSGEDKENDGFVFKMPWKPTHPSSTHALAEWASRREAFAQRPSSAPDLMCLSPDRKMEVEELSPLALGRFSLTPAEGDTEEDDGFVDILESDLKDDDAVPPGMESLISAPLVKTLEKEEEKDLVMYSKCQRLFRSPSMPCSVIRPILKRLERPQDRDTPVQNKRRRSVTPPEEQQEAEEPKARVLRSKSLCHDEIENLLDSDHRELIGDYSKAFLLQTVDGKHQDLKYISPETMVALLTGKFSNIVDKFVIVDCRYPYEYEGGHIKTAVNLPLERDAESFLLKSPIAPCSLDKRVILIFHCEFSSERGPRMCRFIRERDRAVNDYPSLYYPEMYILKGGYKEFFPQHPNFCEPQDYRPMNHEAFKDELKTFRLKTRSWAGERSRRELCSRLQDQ
TEST PROTOCOL: biochemical
STATED CONDITIONS: read-out: CDC25B WT (Ex. C.5): pIC50 values (converted)
Recorded IC50 by entry

>  <COMPOUND>
CC(C)n1nc(-c2ccc(OCCN3CCNCC3)c(Cl)c2)nc2c(=O)n(C)c(=O)nc1-2

>  <MEASURE UNIT>
nM

>  <IC50>
30.2

$$$$
>  <COMPOUND>
COc1cc(-c2nc3c(=O)n(C)c(=O)nc-3n(C(C)C)n2)cc(OC)c1OCCN(C)C1CCNCC1

>  <MEASURE UNIT>
nM

>  <IC50>
35.6

$$$$
>  <COMPOUND>
COc1cc(-c2nc3c(=O)n(C)c(=O)nc-3n(C3CCNCC3)n2)ccc1OCCN1CCCCC1

>  <MEASURE UNIT>
nM

>  <IC50>
25.4

$$$$
>  <COMPOUND>
COc1cc(-c2nc3c(=O)n(C)c(=O)nc-3n(C(C)C)n2)ccc1OCCN1CCCCC1

>  <MEASURE UNIT>
nM

>  <IC50>
44

$$$$
>  <COMPOUND>
CC(C)n1nc(-c2ccc(OCCN3CCCCC3)c(Cl)c2)nc2c(=O)n(C)c(=O)nc1-2

>  <MEASURE UNIT>
nM

>  <IC50>
25.8

$$$$
>  <COMPOUND>
CC(C)n1nc(-c2ccc(CN3CCN(S(=O)(=O)N(C)C)CC3)cc2)nc2c(=O)n(C)c(=O)nc1-2

>  <MEASURE UNIT>
nM

>  <IC50>
22.6

$$$$
>  <COMPOUND>
CC(C)n1nc(-c2ccc(OCCCN3CCCCC3)cc2)nc2c(=O)n(C)c(=O)nc1-2 [Compound 90]

>  <MEASURE UNIT>
nM

>  <IC50>
27.9

$$$$
>  <COMPOUND>
CC(C)n1nc(-c2ccc(CN(C)C3CCN(S(=O)(=O)N(C)C)CC3)cc2)nc2c(=O)n(C)c(=O)nc1-2

>  <MEASURE UNIT>
nM

>  <IC50>
119

$$$$
>  <COMPOUND>
COc1cc(-c2nc3c(=O)n(C)c(=O)nc-3n(C(C)C)n2)cc(OC)c1OCCN1CCN(C(=O)OC(C)(C)C)CC1

>  <MEASURE UNIT>
nM

>  <IC50>
35.5

$$$$
